- PROCEDURE TEXT: Cytotoxicity assay (CellTiter-Glo) in HL60 cells
- Assay type: cell-based
- TEST PARAMETERS: human, 48 hours post drug incubation, cell viability by CellTiter-Glo, triplicate, read-out: Chromenone cytotoxicity IC50, HL60
Below, each of the compounds is paired with its reported IC50 at 48 h value.

# COMPOUND, IC50 at 48 h
data = [
    ("COC(=O)C(C)(C)c1cc(=O)c2c(OC)ccc(-c3ccc(OC)c4c(=O)cc(C(C)(C)C(=O)OC)oc34)c2o1 [Compound 39c]", "24 µM"),
    ("COc1ccc(-c2ccc(OC)c3c(=O)c(C(C)=O)c([C@@H](OC(C)=O)C(C)C)oc23)c2oc([C@@H](OC(C)=O)C(C)C)c(C(C)=O)c(=O)c12 [Compound 48c]", "> 50 µM"),
    ("O=c1cc(C2CCCO2)oc2c(-c3ccc(O)c4c(=O)cc(C5CCCO5)oc34)ccc(O)c12 (stereo not drawn) [Compound 28e]", "> 50 µM"),
]
